Target: Transferrin (Homo sapiens, UniProt P02787)
Sequence (P02787 20-698): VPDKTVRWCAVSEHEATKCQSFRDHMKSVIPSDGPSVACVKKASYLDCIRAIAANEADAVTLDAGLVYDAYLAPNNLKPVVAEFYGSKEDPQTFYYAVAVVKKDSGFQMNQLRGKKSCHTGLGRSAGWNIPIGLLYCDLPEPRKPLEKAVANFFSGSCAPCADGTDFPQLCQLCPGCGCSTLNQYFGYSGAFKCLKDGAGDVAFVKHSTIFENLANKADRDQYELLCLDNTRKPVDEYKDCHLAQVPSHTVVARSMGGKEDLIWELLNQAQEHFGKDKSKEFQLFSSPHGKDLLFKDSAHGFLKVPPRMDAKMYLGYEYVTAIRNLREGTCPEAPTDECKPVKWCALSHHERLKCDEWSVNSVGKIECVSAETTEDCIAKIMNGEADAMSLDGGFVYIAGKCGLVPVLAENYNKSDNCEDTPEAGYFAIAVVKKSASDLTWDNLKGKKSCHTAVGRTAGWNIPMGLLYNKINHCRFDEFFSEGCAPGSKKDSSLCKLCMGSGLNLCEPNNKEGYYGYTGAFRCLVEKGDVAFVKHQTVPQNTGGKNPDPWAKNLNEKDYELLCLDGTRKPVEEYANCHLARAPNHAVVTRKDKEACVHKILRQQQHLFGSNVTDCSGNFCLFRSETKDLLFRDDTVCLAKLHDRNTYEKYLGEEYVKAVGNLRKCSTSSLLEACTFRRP
Experiment: SPR solution phase KD of candidate affinity elements, transferrin immobilized (Biacore T100)
Format: binding
Settings: steady-state response, 25° C., PBST
pKd: −log10 of the molar value. Where no end group is shown, it is not given here.
# pKd values compiled below
Property: pKd

Monomer Sequence	Property	Recorded Measurement
QYHHFMNLKRQGRAQAYGSC [TRF21]	pKd	~4.22
KEDNPGYSSEQDYNKLDGSC [TRF19]	pKd	~3.82
FRGWAHIFFGPHVIYRGGSC [TRF23]	pKd	~4.30
SVKPWRPLITGNRWLNSGSC [TRF24]	pKd	~4.30
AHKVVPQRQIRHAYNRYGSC [TRF26]	pKd	~4.00
APYAPQQIHYWSTLGFKGSC [TRF25]	pKd	~4.22
